# tested.system: T1, RFS1 (cShu subunit);RIP1 (cShu subunit);SWS1 (cShu subunit) (Caenorhabditis elegans;Caenorhabditis …, UniProt P34348;Q21621;Q8MYM5 1-245;1-209;1-191, ||)
# T1 sequence 1: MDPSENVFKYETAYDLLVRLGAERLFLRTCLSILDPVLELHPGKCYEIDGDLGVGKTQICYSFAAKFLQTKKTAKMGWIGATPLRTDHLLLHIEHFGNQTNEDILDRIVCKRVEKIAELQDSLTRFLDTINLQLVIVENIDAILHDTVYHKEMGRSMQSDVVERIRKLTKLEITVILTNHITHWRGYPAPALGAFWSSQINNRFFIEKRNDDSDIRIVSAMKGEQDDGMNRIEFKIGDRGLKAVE
# T1 sequence 2: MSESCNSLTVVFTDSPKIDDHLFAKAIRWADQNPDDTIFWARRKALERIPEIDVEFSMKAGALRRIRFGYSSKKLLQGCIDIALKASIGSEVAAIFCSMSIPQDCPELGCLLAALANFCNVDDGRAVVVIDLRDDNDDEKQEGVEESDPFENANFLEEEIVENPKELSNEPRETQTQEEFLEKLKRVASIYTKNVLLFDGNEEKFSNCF
# T1 sequence 3: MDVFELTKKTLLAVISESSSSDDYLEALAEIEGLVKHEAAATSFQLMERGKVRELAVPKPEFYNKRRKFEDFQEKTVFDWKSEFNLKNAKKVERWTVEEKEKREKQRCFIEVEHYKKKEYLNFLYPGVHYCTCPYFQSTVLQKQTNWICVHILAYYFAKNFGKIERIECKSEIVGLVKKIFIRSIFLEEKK
# protocol.text: fluorescence polarization
pKd: −log10 of the molar value.
We begin with a simple list: items and their reported pKd.

| binder | pKd |
| --- | --- |
| Fork (20 nt) (mixed) DNA 1: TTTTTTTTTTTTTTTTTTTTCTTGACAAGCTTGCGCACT DNA 2: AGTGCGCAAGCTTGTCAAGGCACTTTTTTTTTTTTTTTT | 5.55 |
| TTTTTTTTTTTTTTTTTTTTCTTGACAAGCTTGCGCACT (ssDNA) [ss39] | 5.54 |
| 5'-overhang (20 nt) (mixed) DNA 1: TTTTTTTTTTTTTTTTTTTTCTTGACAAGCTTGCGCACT DNA 2: AGTGCGCAAGCTTGTCAAG | 5.38 |

Reference for the values: paper doi:10.1101/2025.11.17.685403
